// provenance: patent US9346839B2

Would you kindly list Kd for each of these molecules?
Target: ABAD (Homo sapiens (Human), UniProt Q99714)
Sequence (Q99714 whole entry): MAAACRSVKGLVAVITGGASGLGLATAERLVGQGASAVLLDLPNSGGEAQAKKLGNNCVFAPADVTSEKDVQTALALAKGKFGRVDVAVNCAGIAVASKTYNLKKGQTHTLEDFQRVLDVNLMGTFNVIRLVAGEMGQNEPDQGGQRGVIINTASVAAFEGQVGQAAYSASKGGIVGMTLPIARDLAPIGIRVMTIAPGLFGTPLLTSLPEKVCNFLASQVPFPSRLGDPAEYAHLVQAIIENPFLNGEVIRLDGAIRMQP
Assay: Surface plasmon resonance (BIACORE 3000) binding experiment with ABAD
Conditions: Table 7; 1:1 Langmuir binding fit; read-out: SPR KD
Give bare numbers, in nM.

molecule	unit info	Kd
COC(=O)c1cc([C@H](Nc2nc3ccc(OC)cc3s2)P(=O)(OC)OC)ccc1O [Compound 4]	nM	496
COc1ccc2nc(N[C@@H](c3ccc(O)cc3)P(=O)(OC)OC)sc2c1 (racemic) [Compound 8]	nM	291

Could you now look at the following molecule, please?
Field request: Kd | item: COc1ccc2nc(N[C@@H](c3ccc(F)cc3)P(=O)(OC)OC)sc2c1 [Compound 15] 264

====

Would you kindly list pKi for each of these molecules?
Target: ABAD (Homo sapiens (Human))
Assay: Inhibition of reduction of S-acetoacetyl-CoA (SAAC) by ABAD (ABAD enzymatic activity)
Assay type: biochemical
Settings: Table 7; read-out: ABAD Enzymatic Activity Ki
One number for each entry, as −log10 of the molar value.

Example entries and their recorded answers appear below.
molecule	measurement target	observed result
COC(=O)c1cc([C@H](Nc2nc3ccc(OC)cc3s2)P(=O)(OC)OC)ccc1O	ABAD (Homo sapiens (Human))	4.02
COc1ccc2nc(N[C@@H](c3ccc(F)cc3)P(=O)(OC)OC)sc2c1	ABAD (Homo sapiens (Human))	3.45

Could you now look at the following molecule, please?
Field request: pKi | item: COc1ccc2nc(N[C@@H](c3ccc(O)cc3)P(=O)(OC)OC)sc2c1 (racemic) 4.83

====

Assay: Pharmacokinetic study, plasma and brain levels by LC-MS/MS
Type: in vivo
Settings: both sexes, C57BL6, mouse; Brain; intravenous 10 mg/kg, mice
metric: Cmax
Note: a bare number is incomplete; add the unit.

Example entries and their recorded answers appear below.
compound	observed result
COC(=O)c1cc([C@H](Nc2nc3ccc(OC)cc3s2)P(=O)(OC)OC)ccc1O	50.7 ng/mL
COc1ccc2nc(N[C@@H](c3ccc(O)cc3)P(=O)(OC)OC)sc2c1 (racemic)	4.8 ng/mL

Could you now look at the following compound, please?
Field request: Cmax | item: COc1ccc2nc(N[C@@H](c3ccc(F)cc3)P(=O)(OC)OC)sc2c1 44.3 ng/mL

====

Would you kindly list pKi for each of these compounds?
Target: ABAD (Homo sapiens (Human), UniProt Q99714)
Experiment: Inhibition of reduction of S-acetoacetyl-CoA (SAAC) by ABAD (ABAD enzymatic activity)
Assay type: biochemical
Settings: Table 6; reduction of SAAC by ABAD; read-out: Ki
One number for each entry, as −log10 of the molar value.

compound	pKi
COC(=O)c1cc([C@H](Nc2nc3ccc(OC)cc3s2)P(=O)(OC)OC)ccc1O [Compound 4]	5.26

Field request: pKi | item: COc1ccc2nc(N[C@@H](c3ccc(O)cc3)P(=O)(OC)OC)sc2c1 (racemic) [Compound 8] 4.15

====

Would you kindly list Tmax for each of these compounds?
Assay: Pharmacokinetic study, plasma and brain levels by LC-MS/MS
Format: in vivo
Details: both sexes, C57BL6, mouse; Brain; intravenous 10 mg/kg, mice
One number for each entry, in min.

compound	Tmax (min)
COC(=O)c1cc([C@H](Nc2nc3ccc(OC)cc3s2)P(=O)(OC)OC)ccc1O [Compound 4]	1.8

Could you now look at the following compound, please?
Field request: Tmax | item: COc1ccc2nc(N[C@@H](c3ccc(F)cc3)P(=O)(OC)OC)sc2c1 [Compound 15] 1.8

====

Assay: Pharmacokinetic study, plasma and brain levels by LC-MS/MS
Type: in vivo
Conditions: both sexes, C57BL6, mouse; Brain; intravenous 10 mg/kg, mice
Procedure: Liquid Chromatography (LC) Method for Mass Spectrometry (MS) Detection. Chromatographic separation was on an ACE C18 column (Mac Mod Analytical, 3 μm, Ultra-Inert HPLC Column, 50×2.1 mm) protected by a matched ACE guard cartridge. […] Application to Pharmacokinetic Study and Data Analysis. Using the validated LCMS/MS method, blood and brain levels of 4, 8, and 15 were measured in male and female C57BL6 mice (8-10 week-old, weighing approximately 25-30 grams). […]
metric: AUC(0-inf) (ng·h/mL)
Give bare numbers, in ng·h/mL.

Example entries and their recorded answers appear below.
molecule	AUC(0-inf) (ng·h/mL)
COc1ccc2nc(N[C@@H](c3ccc(F)cc3)P(=O)(OC)OC)sc2c1 [Compound 15]	65.4
COc1ccc2nc(N[C@@H](c3ccc(O)cc3)P(=O)(OC)OC)sc2c1 (racemic) [Compound 8]	7.1

Could you now look at the following molecule, please?
Field request: AUC(0-inf) | item: COC(=O)c1cc([C@H](Nc2nc3ccc(OC)cc3s2)P(=O)(OC)OC)ccc1O [Compound 4] 75.1

====

Experiment: Pharmacokinetic study, plasma and brain levels by LC-MS/MS
Type: in vivo
Conditions: both sexes, C57BL6, mouse; Plasma; intravenous 10 mg/kg, mice
metric: Tmax (min)
Answers are plain numbers, in min.

compound	Tmax / min
COC(=O)c1cc([C@H](Nc2nc3ccc(OC)cc3s2)P(=O)(OC)OC)ccc1O [Compound 4]	1.8

Could you now look at the following compound, please?
Field request: Tmax | item: COc1ccc2nc(N[C@@H](c3ccc(F)cc3)P(=O)(OC)OC)sc2c1 [Compound 15] 1.8

====

Molecular target: ABAD (Homo sapiens (Human))
Test: Inhibition of reduction of S-acetoacetyl-CoA (SAAC) by ABAD (ABAD enzymatic activity)
Type: biochemical
Details: Table 7; read-out: ABAD Enzymatic Activity IC50
metric: IC50 (µM)
Numbers only, in µM.

Example entries and their recorded answers appear below.
compound	IC50, µM
COC(=O)c1cc([C@H](Nc2nc3ccc(OC)cc3s2)P(=O)(OC)OC)ccc1O	341
COc1ccc2nc(N[C@@H](c3ccc(O)cc3)P(=O)(OC)OC)sc2c1 (racemic)	52.7

Field request: IC50 | item: COc1ccc2nc(N[C@@H](c3ccc(F)cc3)P(=O)(OC)OC)sc2c1 1260

====

Would you kindly list half-life for each of these compounds?
Assay: Pharmacokinetic study, plasma and brain levels by LC-MS/MS
Assay type: in vivo
Conditions: both sexes, C57BL6, mouse; Brain; intravenous 10 mg/kg, mice
Answers are plain numbers, in h.

Example entries and their recorded answers appear below.
compound	half-life (h)
COc1ccc2nc(N[C@@H](c3ccc(O)cc3)P(=O)(OC)OC)sc2c1 (racemic) [Compound 8]	8.3
COC(=O)c1cc([C@H](Nc2nc3ccc(OC)cc3s2)P(=O)(OC)OC)ccc1O [Compound 4]	17.1

Field request: half-life | item: COc1ccc2nc(N[C@@H](c3ccc(F)cc3)P(=O)(OC)OC)sc2c1 [Compound 15] 11.4
